test: H9c2 cardiomyocyte survival under peroxide injury – uHTS, H9c2 cells, ATPLite luminescence, primary screen (AID 588492); conditions: H9c2 cardiomyocytes, 2 h, at 20 µM, stronger effect = higher value;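 further: 0% = DMSO wells with peroxide and 100% = DMSO wells without peroxide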
In all, about 360,000 compounds went through this assay and about 2,300 (0.64%) were called active. Only a selection was taken, and actives are over-represented in it overall.
Entries and their measured protection from H2O2 cell death follow.
Value Kind: protection from H2O2 cell death (%)

>  <Molecule>
Cc1cc(=O)oc2c(C)c(OCC(=O)NCCc3ccc(S(N)(=O)=O)cc3)ccc12

>  <Value Kind>
protection from H2O2 cell death

>  <Measurement>
-0.5

$$$$
>  <Molecule>
CC1CCC2(CC1)NC(=O)N(CC(=O)c1cccn1C)C2=O (stereo not drawn)

>  <Value Kind>
protection from H2O2 cell death

>  <Measurement>
7.1

$$$$
>  <Molecule>
OC(c1cc(Cl)cc(Cl)c1)c1ncc(-c2ccccc2C(F)(F)F)[nH]1 (stereo not drawn)

>  <Value Kind>
protection from H2O2 cell death

>  <Measurement>
-8.9

$$$$
>  <Molecule>
CCN(CC)CCNc1ccc(Cl)cc1[N+](=O)[O-]

>  <Value Kind>
protection from H2O2 cell death

>  <Measurement>
9.1

$$$$
>  <Molecule>
O=C(CNS(=O)(=O)c1ccc2c(c1)OCCCO2)N1CCN(c2ccc(F)cc2)CC1

>  <Value Kind>
protection from H2O2 cell death

>  <Measurement>
-3.7

$$$$
>  <Molecule>
Cc1cc(C)nc(Nc2n[nH]c(-c3ccccc3N)n2)n1

>  <Value Kind>
protection from H2O2 cell death

>  <Measurement>
-9.5

$$$$
>  <Molecule>
CN(C)CCNc1ccc(-c2n[nH]c(=O)c3ccccc23)cc1[N+](=O)[O-]

>  <Value Kind>
protection from H2O2 cell death

>  <Measurement>
61.1

$$$$
>  <Molecule>
Cc1ccc(S(=O)(=O)N2CCCC2C(=O)OCc2nc3sc(C)c(C)c3c(=O)[nH]2)cc1 (stereo not drawn)

>  <Value Kind>
protection from H2O2 cell death

>  <Measurement>
34.2

$$$$
